Tested on: ERK3
Construct: gene MAPK6
Conditions: Compound Concentration (nM):1000;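 note: KINOMEscan scanMAX binding as percent activity remaining versus control; lower means stronger binding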
Recorded Percent Control values for a group of molecules are listed next.
recorded_metric: Percent Control (%)

molecule="Cl.O=C(O[C@H]1CN[C@H](C#Cc2cc3ncnc(Nc4ccc5c(cnn5Cc5ccccc5)c4)c3s2)C1)N1CCOCC1 [GSK200398A]" reported=100
molecule="O=C1Nc2ccc(C(=O)c3ccco3)cc2C1=Cc1cc(Cl)c(O)c(Cl)c1 [GW406108X]" reported=94
molecule="COc1cccc(-n2ncc3c(N/N=C/c4ccncc4)ncnc32)c1 [GW784752X]" reported=41
molecule="NS(=O)(=O)c1ccc(N/N=C2\\C(=O)Nc3ccc(Cl)cc32)cc1 [GW280670X]" reported=100
molecule="Cl.O=S1CCN(Cc2ccc(-c3ccc4ncnc(Nc5ccc(OCc6ccccc6)c(F)c5)c4c3)o2)CC1 [GW576924A]" reported=100
molecule="NS(=O)(=O)c1ccc(N/N=C2\\C(=O)Nc3ccc(C(=O)NCCc4c[nH]cn4)cc32)cc1 [GW300660X]" reported=100
molecule="Cc1cc(O)cc(C)c1/C=C/c1cncc(C(N)=O)c1 [GW435821X]" reported=100
molecule="COc1cc(N2CCN(C(C)C)CC2)ccc1Nc1nc(Nc2ccc(F)cc2C(=O)NC[C@@H](O)CO)c2cc[nH]c2n1 [GSK1392956A]" reported=66
molecule="CN1CCN(C(=O)c2ccc(NC(=O)Nc3ccc(N(C)c4ccnc(Nc5ccc(CS(C)(=O)=O)cc5)n4)cc3)cc2)CC1.Cl [GW830263A]" reported=100
molecule="COC(=O)Nc1nc2ccc(Oc3ccc(NC(=O)Nc4cc(C(F)(F)F)ccc4F)cc3)cc2s1.Cl [GW693917A]" reported=66

====

Listed here are compounds together with their documented Percent Control.
System: KIT(A829P)
Settings: Compound Concentration (nM):1000
recorded_metric: Percent Control (%)

compound="COc1ccccc1-c1cc(/C=C2\\C(=O)Nc3ncc(Br)cc32)cc(Br)c1O [GW442130X]" u=% reported=100
compound="CCS(=O)(=O)c1ccc(OC)c(Nc2ncc(-c3cccc(F)c3)o2)c1 [GW621970X]" u=% reported=63
compound=CCc1ccc(Oc2nccc(-c3c(-c4ccc(F)cc4)ncn3C3CCNCC3)n2)cc1 u=% reported=94
compound=O=C(Nc1n[nH]c2nc(-c3ccc(O)cc3)c(Br)cc12)C1CC1 u=% reported=100
compound="NS(=O)(=O)c1ccc(N/N=C2\\C(=O)Nc3ccc(Cl)cc32)cc1 [GW280670X]" u=% reported=100
compound="C/C(Nc1ccc(S(N)(=O)=O)cc1)=C1/C(=O)Nc2ccccc21 [GW335962X]" u=% reported=76
compound=COc1cc(C)c(N(C)C(=O)CN(C)C)cc1Nc1nc(Nc2cccc(F)c2C(N)=O)c2cc[nH]c2n1 u=% reported=100
compound="Cl.O=C(O[C@H]1CN[C@H](C#Cc2cc3ncnc(Nc4ccc5c(cnn5Cc5ccccc5)c4)c3s2)C1)N1CCOCC1 [GSK200398A]" u=% reported=100
compound="COc1ccc(COc2ccc(Cc3cnc(N)nc3N)cc2OC)cc1 [GW632580X]" u=% reported=100
compound="COc1cc2ncn(-c3cc(O[C@H](C)c4ccccc4Cl)c(C(N)=O)s3)c2cc1OC [GSK237701A]" u=% reported=11
compound="CC(C)COC(=O)c1ccc2c(c1)/C(=C/Nc1ccc(S(N)(=O)=O)cc1)C(=O)N2 [GW416981X]" u=% reported=53
compound="CN(C)c1cc2c(Nc3ccc4c(cnn4Cc4ccccc4)c3)ncnc2cn1 [GW282974X]" u=% reported=70
compound="COc1cccc(-n2ncc3c(N/N=C/c4ccncc4)ncnc32)c1 [GW784752X]" u=% reported=100
compound="Cl.O=C(Nc1ccc(Oc2ccc3[nH]c(NC(=O)c4ccccc4)nc3c2)cc1)Nc1cc(C(F)(F)F)ccc1F [GW709042A]" u=% reported=20
compound="CCS(=O)(=O)c1ccc(OC)c(Nc2ncc(-c3cccc(OC)c3)o2)c1 [GW580509X]" u=% reported=83
compound=NS(=O)(=O)c1ccc(N/N=C2\C(=O)Nc3ccc(-c4cnco4)cc32)cc1 u=% reported=79
compound="COc1cc(N2CCN(C(C)C)CC2)ccc1Nc1nc(Nc2ccc(F)cc2C(=O)NC[C@@H](O)CO)c2cc[nH]c2n1 [GSK1392956A]" u=% reported=88
